Listing of entries alongside the reported Enzymatic hOGA; pIC50.
# experimental_target: recombinant human Meningioma Expressed Antigen 5 (MGEA5), also referred to as O-GlcNAcase (OGA) (Homo sapiens)
# Construct: Full length OGA enzyme was purchased at OriGene (cat # TP322411); purchased OriGene TP322411
# Sequence (O60502 1-916): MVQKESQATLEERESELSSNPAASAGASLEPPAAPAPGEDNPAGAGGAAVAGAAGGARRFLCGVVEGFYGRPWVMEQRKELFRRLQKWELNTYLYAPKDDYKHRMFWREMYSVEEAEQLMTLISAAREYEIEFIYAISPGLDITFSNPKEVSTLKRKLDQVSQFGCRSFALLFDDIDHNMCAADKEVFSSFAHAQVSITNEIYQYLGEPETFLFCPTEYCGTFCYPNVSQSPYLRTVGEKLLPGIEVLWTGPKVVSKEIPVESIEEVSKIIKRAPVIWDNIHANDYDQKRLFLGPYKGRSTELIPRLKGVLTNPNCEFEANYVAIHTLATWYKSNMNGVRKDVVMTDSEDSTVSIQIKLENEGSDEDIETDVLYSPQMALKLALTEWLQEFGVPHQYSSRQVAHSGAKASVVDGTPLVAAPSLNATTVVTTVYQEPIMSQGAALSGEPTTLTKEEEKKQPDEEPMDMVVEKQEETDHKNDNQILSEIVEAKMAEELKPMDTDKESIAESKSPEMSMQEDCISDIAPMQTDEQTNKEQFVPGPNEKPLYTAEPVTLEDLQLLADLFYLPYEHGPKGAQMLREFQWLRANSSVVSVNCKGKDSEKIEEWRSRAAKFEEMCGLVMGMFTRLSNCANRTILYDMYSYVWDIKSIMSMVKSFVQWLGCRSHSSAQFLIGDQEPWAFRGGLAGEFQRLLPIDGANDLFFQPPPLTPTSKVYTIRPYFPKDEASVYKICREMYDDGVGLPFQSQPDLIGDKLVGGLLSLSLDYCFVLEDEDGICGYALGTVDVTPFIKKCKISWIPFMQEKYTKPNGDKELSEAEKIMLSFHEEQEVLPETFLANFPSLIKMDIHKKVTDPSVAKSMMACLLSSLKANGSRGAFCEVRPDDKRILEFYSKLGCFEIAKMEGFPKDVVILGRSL
# assay_text: OGA biochemical assay: inhibition of FM-GlcNAc hydrolysis, fluorescence; protocol A (10 nM OGA, 1 h) or protocol B (2 nM OGA, 6 h)
# condition_set: Enzymatic protocol B (2 nM OGA, 6 h)
Lab note: record just the number, no unit beside it.

Solved entries (count: 3):
Cc1cc(C[C@H]2CCN(Cc3ccc4sc(C)nc4c3)C2)cc(C)n1 [compound 82] | 5.91
CC(=O)Nc1ncc(CN2CCC(Cc3cc(C(F)(F)F)ccn3)C2)s1 (stereo not shown) [compound 53] | 7.05
Cc1cc(C[C@H]2CCN(Cc3ccc4c(c3)OCCO4)C2)cc(C)n1 [compound 101] | 5.8

Q: Please give measured Enzymatic hOGA; pIC50 of the following entry: CC(=O)Nc1ncc(CN2CCC(Cc3cnc(C(F)(F)F)cn3)C2)s1 (stereo not shown) [compound 64]
A: 7.34

Q: For CC(=O)Nc1ncc(CN2CC[C@H](Cc3ccc(C)nc3C#N)C2)s1 [compound 84] , write its Enzymatic hOGA; pIC50.
A: 8.30

Q: Assign Enzymatic hOGA; pIC50 to the following record: CC(=O)Nc1ncc(CN2CCC(Cc3ccc(C(F)(F)F)cn3)C2)s1 (stereo not shown) [compound 68]
A: 7.10

Q: Quick one: give measured Enzymatic hOGA; pIC50 for Cc1cc(C[C@H]2CCN(Cc3ccc4scnc4c3)C2)cc(C)n1 [compound 83]
A: 5.79

Q: Read the entry COc1cncc(CC2CCN(Cc3cnc(NC(C)=O)s3)C2)n1 (stereo not shown) [compound 66] and write its reported Enzymatic hOGA; pIC50.
A: 8.53

----------
# experimental_target: recombinant human Meningioma Expressed Antigen 5 (MGEA5), also referred to as O-GlcNAcase (OGA) (Homo sapiens, UniProt O60502)
# Construct: Full length OGA enzyme was purchased at OriGene (cat # TP322411); purchased OriGene TP322411
# assay_text: OGA biochemical assay: inhibition of FM-GlcNAc hydrolysis, fluorescence; protocol A (10 nM OGA, 1 h) or protocol B (2 nM OGA, 6 h)
# condition_set: Enzymatic protocol A (10 nM OGA, 1 h)
endpoint: Emax (%)
Give the value, in units of %, as a plain number.

Reference set (2 entries):
CC(=O)Nc1ncc(S(=O)(=O)N2CCCC(Oc3cc(C)nc(C)c3)C2)s1 (centres unmarked) | 96.3
CC(=O)Nc1ncc(S(=O)(=O)N2CCC(c3ccnc(C)c3)C2)s1 (centres unmarked) | 15

Q: // fetch Emax given entry CC(=O)Nc1ncc(CN2CCCC(c3ccccc3)C2)s1 (centres unmarked) [compound 5, reference compound]
A: 102

Q: Give the reported Emax for this compound. CC(=O)Nc1ncc(CN2CCCC(Oc3cc(C)nc(C)c3)C2)s1 (centres unmarked)
A: 100

Q: Tell me its Emax given CC(=O)Nc1ncc(S(=O)(=O)N2CCCC(Oc3ccnc(C)c3)C2)s1 (centres unmarked) as the entry.
A: 89

----------
# experimental_target: recombinant human Meningioma Expressed Antigen 5 (MGEA5), also referred to as O-GlcNAcase (OGA) (Homo sapiens, UniProt O60502)
# Construct: Full length OGA enzyme was purchased at OriGene (cat # TP322411); purchased OriGene TP322411
# assay_text: OGA biochemical assay: inhibition of FM-GlcNAc hydrolysis, fluorescence; protocol A (10 nM OGA, 1 h) or protocol B (2 nM OGA, 6 h)
# condition_set: Enzymatic protocol B (2 nM OGA, 6 h)
Attribute: Emax
Only the number, expressed in %, is required.

Q: For the molecule "Cc1cc(C[C@H]2CCCN(Cc3nc4ccccc4[nH]3)C2)cc(C)n1" , report Emax.
A: 2.86

----------
# experimental_target: recombinant human Meningioma Expressed Antigen 5 (MGEA5), also referred to as O-GlcNAcase (OGA) (Homo sapiens)
# Construct: Full length OGA enzyme was purchased at OriGene (cat # TP322411); purchased OriGene TP322411
# Sequence (O60502 1-916): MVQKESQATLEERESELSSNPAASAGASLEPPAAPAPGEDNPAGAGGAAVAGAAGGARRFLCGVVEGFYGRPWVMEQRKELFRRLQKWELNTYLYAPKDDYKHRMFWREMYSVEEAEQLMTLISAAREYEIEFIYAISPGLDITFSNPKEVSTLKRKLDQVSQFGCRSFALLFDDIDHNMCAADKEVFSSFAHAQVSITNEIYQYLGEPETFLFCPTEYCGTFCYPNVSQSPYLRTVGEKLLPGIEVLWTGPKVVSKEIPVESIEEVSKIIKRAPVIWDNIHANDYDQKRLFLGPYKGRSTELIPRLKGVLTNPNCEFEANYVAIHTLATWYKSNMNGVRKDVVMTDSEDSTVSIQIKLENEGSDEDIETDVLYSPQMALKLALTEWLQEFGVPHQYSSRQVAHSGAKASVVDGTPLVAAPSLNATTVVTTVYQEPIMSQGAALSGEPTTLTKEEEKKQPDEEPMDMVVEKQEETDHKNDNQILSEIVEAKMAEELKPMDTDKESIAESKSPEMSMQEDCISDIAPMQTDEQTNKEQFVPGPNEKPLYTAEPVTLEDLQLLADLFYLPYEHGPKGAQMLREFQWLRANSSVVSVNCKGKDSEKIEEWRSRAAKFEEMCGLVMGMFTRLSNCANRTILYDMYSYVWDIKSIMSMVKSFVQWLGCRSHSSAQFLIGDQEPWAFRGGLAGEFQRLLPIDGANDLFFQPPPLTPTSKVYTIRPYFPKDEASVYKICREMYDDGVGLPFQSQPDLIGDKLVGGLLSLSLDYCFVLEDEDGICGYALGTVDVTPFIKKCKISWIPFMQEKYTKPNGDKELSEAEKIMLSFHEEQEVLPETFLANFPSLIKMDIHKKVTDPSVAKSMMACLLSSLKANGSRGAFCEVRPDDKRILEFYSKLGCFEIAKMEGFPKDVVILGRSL
# assay_text: OGA biochemical assay: inhibition of FM-GlcNAc hydrolysis, fluorescence; protocol A (10 nM OGA, 1 h) or protocol B (2 nM OGA, 6 h)
# condition_set: Enzymatic protocol B (2 nM OGA, 6 h)
// reported Emax per item
Numbers only here, please. The scale is %.

Cc1cc(C[C@H]2CCCN(Cc3cc4ccccc4n3C)C2)cc(C)n1 [compound 150] | 20.8
CC(=O)Nc1ncc(CN2CCC[C@@H](Nc3cc(C)nc(C)c3)C2)s1 [compound 8] | 101
Cc1cc(C[C@H]2CCCN(Cc3ccc4scnc4c3)C2)cc(C)n1 [compound 147] | 99

Q: Indicate its recorded Emax; the compound in question is CC(=O)Nc1ncc(CN2CC[C@H](Cc3ncc(C)nc3C)C2)s1 [compound 58]
A: 101

Q: Note Emax for the compound shown: CC(=O)Nc1ncc(CN2CCC(Cc3cnc(C(N)=O)cn3)C2)s1 (centres unmarked) [compound 105]
A: 102

Q: Output Emax of CC(=O)Nc1ncc([C@@H](C)N2CCC[C@@H](COc3cc(C)nc(C)c3)C2)s1 (single isomer, unassigned) [compound 135]
A: 104

Q: Tell me its Emax given CC(=O)Nc1ncc(CN2CCC[C@H](Cc3cc(C)nc(C)c3)C2)s1 [compound 28] as the entry.
A: 102

Q: Quote Emax reported for Cc1cc(O[C@@H]2CCCN(Cc3ccc4nccnc4c3)C2)cc(C)n1 [compound 18] please.
A: 97.9
